Molecular target: T1, HLA-DRB1*01:01 (biochemical MHC-peptide affinity assay) (human)
T1 chain 1: not shown
T1 chain 2: not shown
Assay: biochemical MHC-peptide affinity assay
property_name: Measured affinity (nM)

1) GVQRGLVGEIIKR (modifications not checked)	8
2) SPHAFKTESGEETDL (modifications not checked)	333
3) TWFNQPARKIR (modifications not checked)	8
4) GHPDLQGQPAEEIFES (modifications not checked)	189

Where do the numbers come from? From patent US20200279616A1.
